# Method Description: Absorption wavelength of the cyanine dyes in methanol (halo substitution effect)
# Format: physicochemical
# Condition: Table 2
Quantity Name: λMeOH

Compound	Quantity Name	Reported Measurement
CC1(C)C(/C=C/C2=C(c3cccc(F)c3F)C(=C/C=C3/N(CCCCS(=O)(=O)[O-])c4ccc(S(=O)(=O)[O-])cc4C3(C)C)/CC(C(=O)O)C2)=[N+](CCCCS(=O)(=O)[O-])c2ccc(S(=O)(=O)[O-])cc21.[Na+].[Na+].[Na+] (centres unmarked) [Compound 63a]	λMeOH	770 nm
CCCCOc1c(F)c(F)c(C2=C(/C=C/C3=[N+](CCCCS(=O)(=O)[O-])c4ccc(S(=O)(=O)[O-])cc4C3(C)C)CCC/C2=C\C=C2\N(CCCCS(=O)(=O)[O-])c3ccc(S(=O)(=O)[O-])cc3C2(C)C)c(F)c1F.[Na+].[Na+].[Na+] [Compound 24]	λMeOH	790 nm
